Molecular target: GSTP1 (Homo sapiens)
Sequence (P09211 whole entry): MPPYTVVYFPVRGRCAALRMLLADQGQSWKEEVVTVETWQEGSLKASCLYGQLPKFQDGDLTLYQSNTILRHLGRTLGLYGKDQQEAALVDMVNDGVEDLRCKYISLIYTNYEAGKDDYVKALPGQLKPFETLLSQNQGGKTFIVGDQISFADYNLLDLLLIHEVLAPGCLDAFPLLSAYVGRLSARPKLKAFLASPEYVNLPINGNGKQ
Assay: In vitro enzyme activity assay, GSTP1
Conditions: purified recombinant protein
readout_kind: IC50

> print(dat)
                                   compound  reported.value
1  Cc1onc(-c2ccccc2)c1C(=O)Nc1ncc([N+](=O)[O-])s1 [MNPC]          797 nM

====

Biological target: NQO1 (Homo sapiens, UniProt P15559)
Sequence (P15559 whole entry): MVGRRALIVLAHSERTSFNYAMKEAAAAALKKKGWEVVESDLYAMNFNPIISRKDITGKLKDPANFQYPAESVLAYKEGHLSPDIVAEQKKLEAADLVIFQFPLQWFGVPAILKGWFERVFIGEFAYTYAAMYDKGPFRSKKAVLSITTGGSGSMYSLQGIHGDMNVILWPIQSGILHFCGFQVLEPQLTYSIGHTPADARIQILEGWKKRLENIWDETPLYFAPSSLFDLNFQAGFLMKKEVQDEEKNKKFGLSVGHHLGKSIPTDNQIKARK
Experiment: BIACORE binding assay, NQO1
Settings: MNPC immobilized to the chip
pKd: −log10 of the molar value.
readout_kind: pKd

> print(dat)
                              line.notation                               target  reported.value
1  Cc1onc(-c2ccccc2)c1C(=O)Nc1ncc([N+](=O)[O-])s1  NQO1 (Homo sapiens, UniProt P15559)            7.04

Reference source for all entries: patent US12478614B2
